target: GSK-3β (Homo sapiens, UniProt P49841); assay: GSK-3β kinase inhibition, Z'-LYTE FRET assay (Thermo Fisher SelectScreen); type: biochemical; settings: 100 μM single dose
Sequence (P49841 whole entry): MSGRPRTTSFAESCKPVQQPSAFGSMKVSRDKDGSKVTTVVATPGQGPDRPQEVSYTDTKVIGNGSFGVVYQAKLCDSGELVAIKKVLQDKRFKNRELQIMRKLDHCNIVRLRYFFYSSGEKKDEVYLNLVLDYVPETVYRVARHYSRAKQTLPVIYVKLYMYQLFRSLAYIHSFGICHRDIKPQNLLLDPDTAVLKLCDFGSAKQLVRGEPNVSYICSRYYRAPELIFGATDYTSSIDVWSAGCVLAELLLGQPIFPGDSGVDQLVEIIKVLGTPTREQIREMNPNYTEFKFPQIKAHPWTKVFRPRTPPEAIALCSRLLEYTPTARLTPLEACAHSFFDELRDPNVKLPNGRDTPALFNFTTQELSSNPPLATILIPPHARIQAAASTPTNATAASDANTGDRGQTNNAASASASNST
recorded.metric: inhibition at 100 µM (%)

Worked set:
GET inhibition at 100 µM where system = GSK-3β (Homo sapiens, UniProt P49841) and item = COc1ccc(C=NNC(=O)COc2ncnc3sc4c(c23)CCCC4)c(OC)c1OC 24

Fill: inhibition at 100 µM (GSK-3β (Homo sapiens, UniProt P49841)) for this compound O=C(Nc1ccc(Cl)c(C(F)(F)F)c1)Nc1ncnc2sc3c(c12)CCCC3 68

Please tell me the measured inhibition at 100 µM for S=C(Nc1ccccc1)Nc1ncnc2sc3c(c12)CCCC3 ; system: GSK-3β (Homo sapiens, UniProt P49841). 68

Fill in: inhibition at 100 µM on GSK-3β (Homo sapiens, UniProt P49841), entry O=C(COc1ncnc2sc3c(c12)CCCC3)NN=Cc1ccc(Br)cc1 43

Provide the reported inhibition at 100 µM (system: GSK-3β (Homo sapiens, UniProt P49841)) for Cc1cccc(NC(=O)Nc2ncnc3sc4c(c23)CCCC4)c1 70

1. CN(C)c1ccc(C=NNC(=O)COc2ncnc3sc4c(c23)CCCC4)cc1
2. O=C(COc1ncnc2sc3c(c12)CCCC3)NN=Cc1ccc(Cl)cc1
3. O=C(COc1ncnc2sc3c(c12)CCCC3)NNC(=S)Nc1ccccc1
# desc sort on inhibition at 100 µM across 3 compounds To answer, write out the labels according to the requested order. 3, 1, 2
